Test system: Candida albicans
Assay: Antifungal activity against Candida albicans MTCC 227 by serial dilution method
Type: functional
Parameters: unit not given here
Quick list: -logMIC per entry.
Lab note: jot down the number only; don't add units.

>>> observed_result("CCNC(=O)c1ccc(OC)c(OC)c1")
1.31
>>> observed_result("CNC(=O)c1ccc(OC)c(OC)c1")
1.28
>>> observed_result("COc1ccc(C(=O)OCCC(C)C)cc1OC")
1.2
>>> observed_result("CCOC(=O)c1ccc(OC)c(OC)c1")
1.23
>>> observed_result("COc1ccccc1NC(=O)c1ccc(OC)c(OC)c1")
1.29
>>> observed_result("COc1ccc(C(=O)Nc2ccccc2C)cc1OC")
1.31
>>> observed_result("COc1ccc(C(=O)Oc2ccccc2)cc1OC")
1.3

Please find the next molecule below.
Record `COc1ccc(C(=O)Nc2ccc(Br)cc2)cc1OC` , field -logMIC: 1.34

* * *

Tested on: Bacillus subtilis
Assay: Antibacterial activity against Bacillus subtilis MTCC 2423 by serial dilution method
Format: functional
Parameters: unit not given here
PROPERTY LABEL: -logMIC
Lab note: jot down the number only; don't add units.

Examples with answers:
>>> observed_result("COc1ccc(C(=O)Nc2ccccc2Cl)cc1OC")
1.39
>>> observed_result("CCCOC(=O)c1ccc(OC)c(OC)c1")
1.2
>>> observed_result("COc1ccc(C(=O)Nc2cccc(C)c2)cc1OC")
1.31
>>> observed_result("COc1ccc(C(=O)Nc2cccc(O)c2)cc1OC")
1.26
>>> observed_result("COc1ccc(C(=O)Nc2ccc(Cl)cc2)cc1OC")
1.28

Record `COc1ccc(C(=O)N2CCOCC2)cc1OC` , field -logMIC: 1.28

Record `CCCCCCOC(=O)c1ccc(OC)c(OC)c1` , field -logMIC: 1.33

Record `COc1ccc(C(=O)Nc2ccc(C)cc2)cc1OC` , field -logMIC: 1.31

Record `COc1ccc(C(=O)NCCO)cc1OC` , field -logMIC: 1.18

Record `CCCCOC(=O)c1ccc(OC)c(OC)c1` , field -logMIC: 1.2

Record `COc1ccc(C(=O)OC(C)(C)C)cc1OC` , field -logMIC: 1.2

Record `COc1ccc(C(=O)OC(C)C)cc1OC` , field -logMIC: 1.2

Record `CCOC(=O)c1ccc(OC)c(OC)c1` , field -logMIC: 1.12

Record `COc1ccc(C(N)=O)cc1OC` , field -logMIC: 1.09

Record `CCCCCOC(=O)c1ccc(OC)c(OC)c1` , field -logMIC: 1.31

Record `COc1ccc(C(=O)N2CCCCC2)cc1OC` , field -logMIC: 1.33

Record `COc1ccc(C(=O)Nc2ccc(Br)cc2)cc1OC` , field -logMIC: 1.4

Record `COC(=O)c1ccc(OC)c(OC)c1` , field -logMIC: 1.2

Record `CCCNC(=O)c1ccc(OC)c(OC)c1` , field -logMIC: 1.23

Record `COc1ccc(C(=O)O)cc1OC` , field -logMIC: 1.31

Record `COc1ccc(C(=O)NN)cc1OC` , field -logMIC: 1.15

Record `C=CCOC(=O)c1ccc(OC)c(OC)c1` , field -logMIC: 1.25

Record `COc1ccc(C(=O)Oc2cccc3cccnc23)cc1OC` , field -logMIC: 1.53

Record `CCNC(=O)c1ccc(OC)c(OC)c1` , field -logMIC: 1.21

src = ChEMBL document CHEMBL1153878
